// provenance: patent US8772499B2

Each item that follows carries a reported pIC50.
- system_under_test: human TRPV3 (Homo sapiens)
- Construct: expressed in transfected cells
- measurement_protocol: In vitro antagonism of recombinant human TRPV3 activation (FLIPR Tetra calcium assay)
- Format: cell-based
- measurement_parameters: HEK293 cells stably expressing human TRPV3; agonist 2-APB at 80 μM; actual measured value shown parenthetically; in most cases average of at least two runs; read-out: IC50
- Method: Test compounds were evaluated for ability to antagonize the activation of recombinant human TRPV3 using FLIPR® Tetra cellular screening. […] A double-addition protocol was used. […] Each test compound evaluated was first dissolved in DMSO to prepare a 10 mM stock solution. […] Changes in fluorescence were measured over time using the FLIPR® instrument. The intensity of the fluorescence was captured and digitally transferred to an interfaced computer. […]
pIC50: −log10 of the molar value.

Answered examples (2):
molecule | pIC50
COc1ccc(C(O)C2(c3ccc(Cl)c(Cl)c3)CCC2)nc1 (stereo not drawn) | < 4.70
CC(C)(C)OC(=O)N1CCC(c2ccc(OC(F)(F)F)cc2)(C(O)c2ccccn2)CC1 (stereo not drawn) | < 4.70

Now let's try a different one.
Prompt line: Identify the reported pIC50 for the following entry. OC(c1ccccn1)C1(c2cccnc2)CCC1 (stereo not drawn)
Response line: < 4.70

----------
- system_under_test: human TRPV3 (Homo sapiens, UniProt Q8NET8)
- Construct: expressed in transfected cells
- Sequence (Q8NET8 1-790): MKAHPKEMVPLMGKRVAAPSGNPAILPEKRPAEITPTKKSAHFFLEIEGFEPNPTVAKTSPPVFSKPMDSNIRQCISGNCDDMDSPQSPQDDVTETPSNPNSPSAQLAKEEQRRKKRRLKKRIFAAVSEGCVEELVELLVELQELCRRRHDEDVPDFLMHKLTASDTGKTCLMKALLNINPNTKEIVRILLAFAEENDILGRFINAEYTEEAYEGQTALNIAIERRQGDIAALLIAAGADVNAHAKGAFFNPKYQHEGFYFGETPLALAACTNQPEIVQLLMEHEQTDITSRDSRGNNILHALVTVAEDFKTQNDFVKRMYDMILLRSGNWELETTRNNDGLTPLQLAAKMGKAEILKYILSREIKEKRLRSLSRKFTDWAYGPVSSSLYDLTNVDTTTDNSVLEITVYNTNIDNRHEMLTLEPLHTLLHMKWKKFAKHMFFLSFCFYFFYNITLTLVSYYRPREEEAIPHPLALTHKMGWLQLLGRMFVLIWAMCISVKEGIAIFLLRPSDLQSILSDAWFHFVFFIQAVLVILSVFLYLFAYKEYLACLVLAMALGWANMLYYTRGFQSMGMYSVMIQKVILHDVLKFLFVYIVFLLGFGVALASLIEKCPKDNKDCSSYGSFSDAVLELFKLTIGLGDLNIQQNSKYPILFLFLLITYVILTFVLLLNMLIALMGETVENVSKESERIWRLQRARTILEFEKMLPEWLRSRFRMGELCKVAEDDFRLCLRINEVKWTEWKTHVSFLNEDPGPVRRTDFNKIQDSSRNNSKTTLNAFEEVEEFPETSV
- measurement_protocol: In vitro antagonism of recombinant human TRPV3 activation (FLIPR Tetra calcium assay)
- Format: cell-based
- measurement_parameters: HEK293 cells stably expressing human TRPV3; agonist 2-APB at 80 μM; actual measured value shown parenthetically; in most cases average of at least two runs; read-out: IC50
test_readout: IC50

Prompt line: Identify measured IC50 obtained with human TRPV3 (Homo sapiens, UniProt Q8NET8) for OC(C1CCc2cccnc21)C1(c2ccc(Cl)c(Cl)c2)CCC1 (stereo not drawn) [Example 167] .
Response line: > 20 µM

Prompt line: Please indicate recorded IC50 of OC(C1CCCc2cccnc21)C1(c2cccc(OC(F)(F)F)c2)CCC1 (stereo not drawn) [Example 188] measured with human TRPV3 (Homo sapiens, UniProt Q8NET8).
Response line: > 20 µM

Prompt line: System human TRPV3 (Homo sapiens, UniProt Q8NET8). Read-out IC50. Item OC(c1ccccn1)C1(c2ccccc2OC(F)(F)F)CCNCC1 (stereo not drawn) . Report value.
Response line: > 20 µM

----------
- system_under_test: human TRPV3 (Homo sapiens, UniProt Q8NET8)
- Construct: expressed in transfected cells
- measurement_protocol: In vitro antagonism of recombinant human TRPV3 activation (FLIPR Tetra calcium assay)
- Format: cell-based
- measurement_parameters: HEK293 cells stably expressing human TRPV3; agonist 2-APB at 80 μM; actual measured value shown parenthetically; in most cases average of at least two runs; read-out: IC50
pIC50: −log10 of the molar value.
test_readout: pIC50

Reference set (2 entries):
compound | pIC50
CC1(O)CC(c2ccc(OC(F)(F)F)cc2)(C(O)c2ncccn2)C1 (stereo not drawn) [Example 310] | < 4.70
CN1CCC(c2ccc(C(F)(F)F)cc2)(C(O)c2ccccn2)CC1 (stereo not drawn) | < 4.70

As a next step, examine the compound that follows.
Prompt line: Annotate the compound CC(C)(C)OC(=O)N1CCC(c2ccc(C(F)(F)F)cc2)(C(O)c2ccccn2)CC1 (stereo not drawn) with its measured pIC50.
Response line: < 4.70

----------
- measurement_protocol: In vitro human microsomal stability assay
- Assay type: in vitro ADME
- measurement_parameters: human, microsomes, 0.5 h, 0.5 μM, pH 7.4
- Experimental: Test compounds were evaluated for metabolic stability in an in vitro rat microsomal stability assay using rat liver microsomes (Sprague-Dawley, from BD Biosciences) and/or an in vitro human microsomal stability assay using human liver microsomes (Xenotech). […] Incubations were carried out at 37° C. with a final incubation volume of 135 μL. […] A 1.5 μL aliquot of reduced nicotine adenine disphosphonucleotide (NADPH) (Chem-Impex Int'L Inc., Lot 12532024) was also added to the time-zero plates.
test_readout: HUMAN MICROSOMAL STABILITY (% REMAINING AFTER 30 MINUTES)

Sample records with HUMAN MICROSOMAL STABILITY (% REMAINING AFTER 30 MINUTES):
compound | result
OC(C1CCCc2cccnc21)C1(c2ccc(Cl)c(Cl)c2)CCC1 (single isomer, unassigned) [Example 182] | <0.01%
OC1CC(c2cc(C(F)(F)F)ccn2)(C(O)c2ccccn2)C1 (stereo not drawn) [Example 283] | >85%

We next turn to a different compound, shown below.
Prompt line: Give the reported value of HUMAN MICROSOMAL STABILITY (% REMAINING AFTER 30 MINUTES) for this record: OC1CC(c2ccc(Cl)c(Cl)c2)(C(O)c2ncccn2)C1 (single isomer, unassigned) [Example 312]
Response line: >85%

----------
- measurement_protocol: In vitro rat microsomal stability assay
- Format: in vitro ADME, rat (Sprague-Dawley)
- measurement_parameters: Sprague-Dawley, rat, microsomes, 0.5 h, 0.5 μM, pH 7.4
Note that class boundaries on RAT MICROSOMAL STABILITY (% REMAINING AFTER 30 MINUTES) are bottom end (below 2%), midrange (2% to below 40%), top end (40% or more)

As a guide, the following entries are already answered.
molecule | category
OC(c1ccccn1)C1(c2ccc(OC(F)(F)F)cc2)CCOCC1 (centres unmarked) | top end
C[C@]1(O)C[C@@](c2ccc(OC(F)(F)F)cc2)([C@@H](O)c2ccccn2)C1 | top end

Prompt line: Lab note: sort OC(c1ccccn1)C1(c2ccc(OC(F)(F)F)cc2)CC(F)(F)C1 (centres unmarked) into the matching RAT MICROSOMAL STABILITY (% REMAINING AFTER 30 MINUTES) band.
Response line: top end

Prompt line: Consider COC1(OC)CC(c2ccc(OC(F)(F)F)cc2)(C(O)c2ccccn2)C1 (centres unmarked) . To which RAT MICROSOMAL STABILITY (% REMAINING AFTER 30 MINUTES) class does it belong?
Response line: bottom end

Prompt line: Band of OC(c1ccccn1)C1(c2cccc(OC(F)(F)F)c2)CCCO1 (single isomer, unassigned) [Example 92] ?
Response line: bottom end

Prompt line: Which class does CC1(O)CC(c2cccc(C(F)(F)F)c2)(C(O)c2ccccn2)C1 (single isomer, unassigned) [Example 244] fall in?
Response line: top end

Prompt line: Kindly identify the class of OC(C1CCc2cccnc21)C1(c2ccc(Cl)c(Cl)c2)CCC1 (centres unmarked) [Example 167] .
Response line: bottom end

----------
- system_under_test: human TRPV3 (Homo sapiens, UniProt Q8NET8)
- Construct: expressed in transfected cells
- measurement_protocol: In vitro antagonism of recombinant human TRPV3 activation (FLIPR Tetra calcium assay)
- Type: cell-based
- measurement_parameters: HEK293 cells stably expressing human TRPV3; agonist 2-APB at 80 μM; actual measured value shown parenthetically; in most cases average of at least two runs; read-out: IC50
Please use condition met for IC50 under 5 µM and condition not met for everything else, ties included.

Prompt line: Decide: IC50 of N#Cc1ccc(C2(C(O)c3ccccn3)CCOC2)cc1 (stereo not drawn) strictly below 5 µM?
Response line: condition not met

Prompt line: Consider the compound OC(C1CCCc2cccnc21)C1(c2cccc(C(F)(F)F)c2)CCC1 (single isomer, unassigned) [Example 180] . Is its IC50 strictly less than 5 µM?
Response line: condition not met

Prompt line: Strictly below 5 µM: is that where IC50 of Nc1cccnc1C(O)C1(c2ccc(OC(F)(F)F)cc2)CCC1 (stereo not drawn) sits?
Response line: condition not met

Prompt line: Given OC(c1ccccn1)C1(c2ccc(C(F)(F)F)cc2)CCNCC1 (stereo not drawn) , is recorded IC50 strictly lower than 5 µM?
Response line: condition not met

Prompt line: Please determine if OC(c1ccccn1)C1(c2ccc(C(F)(F)F)nc2)CCC1 (stereo not drawn) is below 5 µM in terms of IC50.
Response line: condition not met

Prompt line: For this compound, is IC50 lower than 5 µM? N#Cc1cccc(C2(C(O)c3ccccn3)CCOC2)c1 (stereo not drawn)
Response line: condition not met

Prompt line: Would you kindly verify if IC50 of CC(c1ccc(Cl)cc1)C1(C(O)c2ccccn2)CCC1 (stereo not drawn) is strictly less than 5 µM?
Response line: condition met

Prompt line: For this compound, is IC50 lower than 5 µM? OC(C1CCCc2cccnc21)C1(c2ccccc2C(F)(F)F)CCC1 (stereo not drawn) [Example 196]
Response line: condition not met

Prompt line: A record lists OC(C1CCCc2cccnc21)C1(c2ccc(C(F)(F)F)cc2)CCC1 (single isomer, unassigned) [Example 183] . Is its IC50 below 5 µM?
Response line: condition met

Prompt line: Does the reported IC50 of OC(c1ccccn1)C1(c2ccc(C(F)(F)F)cc2)CCCO1 (single isomer, unassigned) [Example 89] stay below 5 µM?
Response line: condition met

Prompt line: Please check: IC50 for OC(c1ccccn1)C1(c2ccc(F)c(F)c2)CCCO1 (single isomer, unassigned) [Example 109] , strictly under 5 µM or not?
Response line: condition not met

Prompt line: # strict comparison: is reported IC50 < 5 µM? input = O=C1CC(c2ccc(C(F)(F)F)cc2)(C(O)c2ccccn2)C1 (stereo not drawn)
Response line: condition not met

Prompt line: Field: below-cutoff. Rule: recorded IC50 strictly less than 5 µM. Subject: Cc1ccccc1CC1(C(O)c2ccccn2)CCC1 (stereo not drawn)
Response line: condition met

Prompt line: Please determine if OC(c1ncccn1)C1(c2ccccc2OC(F)(F)F)CCC1 (stereo not drawn) is below 5 µM in terms of IC50.
Response line: condition not met

Prompt line: Does the reported IC50 of the following compound sit strictly below 5 µM? OC(C1CCCc2cccnc21)C1(c2ccc(OC(F)(F)F)cc2)CCC1 (single isomer, unassigned) [Example 178]
Response line: condition not met
